condition-parameters: in n-hexadecane, 313.2 K
Please respond with reported solubility (mole fraction) for every item in the list.

Req: Suppose we examine the compound C[C@@H]1CC[C@@]2(OC1)O[C@H]1C[C@H]3[C@@H]4CC=C5C[C@@H](O)CC[C@]5(C)[C@H]4CC[C@]3(C)[C@H]1[C@@H]2C ; what solubility (mole fraction) value has been reported?
Resp: 0.000949

Req: Suppose we examine the compound C[C@]12CC[C@@H]3c4ccc(O)cc4CC[C@H]3[C@@H]1C[C@@H](O)[C@@H]2O ; what solubility (mole fraction) value has been reported?
Resp: 0.00251

* * *

condition-parameters: in n-pentanol, 298.2 K
result-type: solubility (mole fraction)

Req: Suppose we examine the molecule C[C@]12CC[C@@H]3c4ccc(O)cc4CC[C@H]3[C@@H]1C[C@@H](O)[C@@H]2O ; what solubility (mole fraction) value has been reported?
Resp: 0.00285

* * *

condition-parameters: in NMP, 308.2 K
result-type: solubility (mole fraction)

Req: Suppose we examine the compound C[C@@H]1CC[C@@]2(OC1)O[C@H]1C[C@H]3[C@@H]4CC=C5C[C@@H](O)CC[C@]5(C)[C@H]4CC[C@]3(C)[C@H]1[C@@H]2C ; what solubility (mole fraction) value has been reported?
Resp: 0.0148

Req: Suppose we examine the compound C[C@]12CC[C@@H]3c4ccc(O)cc4CC[C@H]3[C@@H]1C[C@@H](O)[C@@H]2O ; what solubility (mole fraction) value has been reported?
Resp: 0.00174

* * *

Please respond with reported solubility (mole fraction) for every item in the list.
condition-parameters: in n-octane, 318.2 K
Respond with the number and no other words.

Req: Suppose we examine the compound C[C@]12CC[C@@H]3c4ccc(O)cc4CC[C@H]3[C@@H]1C[C@@H](O)[C@@H]2O ; what solubility (mole fraction) value has been reported?
Resp: 0.00138

Req: Suppose we examine the compound C[C@@H]1CC[C@@]2(OC1)O[C@H]1C[C@H]3[C@@H]4CC=C5C[C@@H](O)CC[C@]5(C)[C@H]4CC[C@]3(C)[C@H]1[C@@H]2C ; what solubility (mole fraction) value has been reported?
Resp: 0.000466

* * *

condition-parameters: in acetonitrile, 303.2 K
result-type: solubility (mole fraction)
Respond with the number and no other words.

Req: Suppose we examine the molecule C[C@@H]1CC[C@@]2(OC1)O[C@H]1C[C@H]3[C@@H]4CC=C5C[C@@H](O)CC[C@]5(C)[C@H]4CC[C@]3(C)[C@H]1[C@@H]2C ; what solubility (mole fraction) value has been reported?
Resp: 0.00675

* * *

condition-parameters: in 2-aminoethanol, 303.2 K
Please respond with reported solubility (mole fraction) for every item in the list.
Respond with the number and no other words.

Req: Suppose we examine the molecule C[C@@H]1CC[C@@]2(OC1)O[C@H]1C[C@H]3[C@@H]4CC=C5C[C@@H](O)CC[C@]5(C)[C@H]4CC[C@]3(C)[C@H]1[C@@H]2C ; what solubility (mole fraction) value has been reported?
Resp: 0.0042

Req: Suppose we examine the molecule C[C@]12CC[C@@H]3c4ccc(O)cc4CC[C@H]3[C@@H]1C[C@@H](O)[C@@H]2O ; what solubility (mole fraction) value has been reported?
Resp: 0.0148

* * *

Please respond with reported solubility (mole fraction) for every item in the list.
condition-parameters: in n-hexadecane, 303.2 K
Respond with the number and no other words.

Req: Suppose we examine the compound C[C@@H]1CC[C@@]2(OC1)O[C@H]1C[C@H]3[C@@H]4CC=C5C[C@@H](O)CC[C@]5(C)[C@H]4CC[C@]3(C)[C@H]1[C@@H]2C ; what solubility (mole fraction) value has been reported?
Resp: 0.000465

Req: Suppose we examine the compound C[C@]12CC[C@@H]3c4ccc(O)cc4CC[C@H]3[C@@H]1C[C@@H](O)[C@@H]2O ; what solubility (mole fraction) value has been reported?
Resp: 0.00175
